Test system: UACC-257
Assay: NCI tumour cell line growth inhibition, 48 h
Active and inactive are the calls of the source. Rule as the data show it: active = GI50 up to about 1.1 µM and inactive = higher.
OBSERVED_PROPERTY: GI50

COC1(CC[C@@H](C)COC2OC(CO)C(O)C(O)C2O)O[C@H]2C[C@H]3[C@@H]4CC=C5C[C@@H](OC6OC(CO)C(OC7OC(C)C(O)C(O)C7O)C(O)C6OC6OC(C)C(O)C(O)C6O)CC[C@]5(C)[C@H]4CC[C@]3(C)[C@H]2[C@@H]1C (stereo not given in full)    3.51 µM (inactive)
CN(C)C(=S)/N=c1\ss/c(=N\C(=S)N(C)C)n1Cc1ccco1    > 100 µM (inactive)
CCOC(=O)C1=C(C)N2CCCOC2(C)C(C(=O)OC)C1c1cccc([N+](=O)[O-])c1 (stereo not given)    86.5 µM (inactive)
NCCCc1ccc2oc3ccccc3c2c1    17.9 µM (inactive)
CC/C=C/C(/C=C/C[C@]1(CC)C[C@H](CC)[C@H](CC(=O)O)OO1)CC (stereo not given in full)    14.5 µM (inactive)

[Q] For the compound shown here, NC1=C(Cl)C(=O)c2ccccc2C1=O , give the reported GI50.
[A] 2.57 µM (inactive)

[Q] // lookup GI50 for Nc1ccc(Nc2cc(O)nc(O)n2)cc1
[A] > 100 µM (inactive)

[Q] What value of measured GI50 is listed for O=C1C2C=CC(n3[nH]c(=O)n(Cc4ccccc4)c3=O)CC2C(=O)N1c1ccc(Br)cc1 (stereo not given) ?
[A] > 100 µM (inactive)

[Q] Look up GI50: OC(c1cc(-c2ccc(C(F)(F)F)cc2)nc(C(F)(F)F)c1)C1CCCCN1 (stereo not given) [ENPIROLINE PHOSPHATE]
[A] 2.03 µM (inactive)

[Q] Find the recorded GI50 belonging to CCOC(=O)CC(=O)Sc1ccccc1 and report it.
[A] 28.1 µM (inactive)
